The origin of these recorded values is paper PMC3477164.

- measurementTarget: T1, Eukaryotic initiation factor 4E (eIF4E), full-length human (human, UniProt P06730 1-217)
- T1 construct: eIF4E, human, full length
- T1 sequence (P06730 whole entry): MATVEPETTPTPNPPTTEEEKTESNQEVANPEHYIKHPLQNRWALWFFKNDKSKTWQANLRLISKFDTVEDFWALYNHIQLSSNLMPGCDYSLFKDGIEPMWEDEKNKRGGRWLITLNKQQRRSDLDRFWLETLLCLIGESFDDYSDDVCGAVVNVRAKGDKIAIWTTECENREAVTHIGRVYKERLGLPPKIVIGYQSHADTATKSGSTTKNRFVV
- experimentNotes: fluorescence based thermal shift assay; 10 uM eIF4E with 100 uM peptide in PBS, Sypro Red, heated from 20 to 90 °C at 1 °C/min; Kd estimated from the Tm shift (enthalpy of binding taken to be -5 kcal/mol)
- measurementSetup: both partners purified
reportedMetric: thermal shift (Tm) (°C)
Numbers only here, please. The scale is °C.

- KKRYDREFLLGL (eIF4G1 peptide with F12L; also called F12L mutant peptide; source: synthetic peptide (Mimotopes), HPLC purified to >90%) [eIF4G1-F12L peptide]: 6.87
- KKRYDREFLVGF (eIF4G1 peptide with L10V; source: synthetic peptide (Mimotopes), HPLC purified to >90%) [eIF4G1-L10V peptide]: 3.9
- KKRYDREQLLGF (eIF4G1 peptide with F8Q; also called eIF4G-F/Q; source: synthetic peptide (Mimotopes), HPLC purified to >90%) [eIF4G1-F8Q peptide]: 5
- KKRYDRDFLLGF (eIF4G1 peptide with E7D; also called E7D mutant peptide; source: synthetic peptide (Mimotopes), HPLC purified to >90%) [eIF4G1-E7D peptide]: 6.87

What value of thermal shift (Tm) has been reported for the following protein? KKRYDREFLLAF (eIF4G1 peptide with G11A; source: synthetic peptide (Mimotopes), HPLC purified to >90%) [eIF4G1-G11A peptide]
8.13

What value of thermal shift (Tm) has been reported for the following protein? KKRYDREFLLGF (also called eIF4G1-WT; eIF4G1 peptide; source: synthetic peptide (Mimotopes), HPLC purified to >90%) [eIF4G1 wild type peptide]
7.03

What value of thermal shift (Tm) has been reported for the following protein? KKRYSREFLLGF (eIF4G1 peptide with D5S; also called eIF4G-D5S; source: synthetic peptide (Mimotopes), HPLC purified to >90%) [eIF4G1-D5S peptide]
8.97

What value of thermal shift (Tm) has been reported for the following protein? KKRYSRDQLVAL (phage display selected 12-mer … with its N-terminal SLH changed to KKR of the eIF4G1 peptide; source: synthetic peptide (Mimotopes), HPLC purified to >90%) [PHAGESOL peptide]
9.83
